Reported pIC50 values are given for each entry in this list.
target: Human eIF4E (aa 28-217) / biotin labeled 4G2 peptide (Homo sapiens, UniProt P06730); construct: Human eIF4E (aa 28-217) with a C-terminal His-tag; test: Human eIF4E/4G2 binding assay (TR-FRET); conditions: TR-FRET eIF4E/4G2 peptide binding; 4 hours preincubation with eIF4E at room temperature
Sequence (P06730 28-217): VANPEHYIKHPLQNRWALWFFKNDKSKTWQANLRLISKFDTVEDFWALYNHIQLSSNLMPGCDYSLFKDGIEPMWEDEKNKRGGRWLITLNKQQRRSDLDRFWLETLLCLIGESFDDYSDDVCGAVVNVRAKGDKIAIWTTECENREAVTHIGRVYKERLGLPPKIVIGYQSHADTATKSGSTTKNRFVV
pIC50: −log10 of the molar value.

CC(C)CCc1nc(Nc2ncc(-c3cccs3)cc2C(=O)O)sc1-c1ccc(S(C)(=O)=O)cc1
6.00 to 6.30

Next item in the queue.
Qu. Lookup: pIC50 / Human eIF4E (aa 28-217) / biotin labeled 4G2 peptide (Homo sapiens, UniProt P06730) / `COc1ccc(-c2sc(Nc3ncc(-c4cccs4)cc3C(=O)O)nc2C2CC2)cc1Cl`
Ans. > 6.30

* * *

biological target: Human eIF4E (aa 28-217) / biotin labeled 4G2 peptide (Homo sapiens, UniProt P06730); construct: Human eIF4E (aa 28-217) with a C-terminal His-tag; test: Human eIF4E/4G2 binding assay (TR-FRET); settings: TR-FRET eIF4E/4G2 peptide binding; 4 hours preincubation with eIF4E at room temperature
pIC50: −log10 of the molar value.
Metric: pIC50

Use these answered entries as a reference point.
CC(C)c1nc(Nc2ncc(C(F)(F)F)cc2C(=O)O)sc1-c1ccc(-c2ccccc2)s1
> 6.30
CC(C)CCc1nc(Nc2ncc(-c3cccs3)cc2C(=O)O)sc1-c1ccc(Oc2ccccc2)cc1
> 6.30

Qu. I have this compound here, `COc1cc(-c2sc(Nc3ncc(-c4cccs4)cc3C(=O)O)nc2CC(C)C)ccc1F` , and I need its recorded pIC50.
Ans. 6.00 to 6.30

Qu. Input `CC(C)c1ccc(-c2sc(Nc3ncc(C(F)(F)F)cc3C(=O)O)nc2C(C)C)cc1`
Ans. 6.00 to 6.30

Qu. Try the compound `CC(C)c1nc(Nc2ncc(C(F)(F)F)cc2C(=O)O)sc1-c1cccs1`
Ans. 6.00 to 6.30

Qu. What about `CC(C)CCc1nc(Nc2cc(C3CCCC3)sc2C(=O)O)sc1-c1ccc(Cl)c(Cl)c1` ?
Ans. > 6.30

Qu. Similarly, `CC(C)CCc1nc(Nc2ncc(C(F)(F)F)cc2C(=O)O)sc1-c1ccc(S(C)(=O)=O)cc1` ?
Ans. 6.00 to 6.30

Qu. `COc1ccc(-c2sc(Nc3ncc(C(F)(F)F)cc3C(=O)O)nc2C(C)C)cc1F` ?
Ans. 6.00 to 6.30

Qu. Then `COc1ccc(-c2sc(Nc3ncc(-c4cccs4)cc3C(=O)O)nc2C)cc1Cl` ?
Ans. 6.00 to 6.30

* * *

Target: Human eIF4E (aa 28-217) / biotin labeled 4G2 peptide (Homo sapiens)
Construct: Human eIF4E (aa 28-217) with a C-terminal His-tag
Assay: Human eIF4E/4G2 binding assay (TR-FRET)
Conditions: TR-FRET eIF4E/4G2 peptide binding; 4 hours preincubation with eIF4E at room temperature
Description: Example 3. Compound Testing in Human eIF4E/4G2 Binding Assay Human eIF4E (aa 28-217) with a C-terminal His-tag was expressed in E. coli in inclusion bodies. The protein was solubilized with 8 M urea and purified under denaturing conditions using nickel-charged HisTrap HP columns (GE Healthcare). […] Assay signals were monitored by reading excitation at 340 nm and emission fluorescence at 615 nm and 665 nm on an Envision reader (Perkin Elmer). […] IC50 values were calculated using xLFit program (IDBS). […]
Items are presented alongside their recorded IC50.

CC(C)CCc1nc(Nc2ncccc2C(=O)O)sc1-c1ccc(Cl)c(Cl)c1
< 500 nM
CC(C)c1nc(Nc2ncc(C(F)(F)F)cc2C(=O)O)sc1-c1ccc(F)cc1F
500 to 1000 nM

Moving on to another compound below.
Qu. Give its IC50 value. Item: `CC(C)c1nc(Nc2ncc(C(F)(F)F)cc2C(=O)O)sc1-c1ccc(-c2cccs2)cc1`
Ans. < 500 nM
